Test system: Escherichia coli
run description: In vitro antibacterial activity, dilution in Mueller Hinton Agar (Table I)
Assay type: cell-based
stated conditions: pH 7.4, strain 1574-1, Mueller Hinton Agar pH 7.4
Protocol: All the tests were carried out and (when necessary) scored under standard conditions. "MIC" means "minimum inhibitory concentration." In vitro Antibacterial Activity of 2-aminoalkyl-3-phenyl- indoles of the formula I. Dilution in Mueller Hinton Agar pH 7.4
# MIC listing for each entry below
// units = µg/mL; emit number, no label

Completed entries (count: 3):
>>> measurement("NCc1[nH]c2ccc(Cl)cc2c1-c1ccccc1")
3
>>> measurement("NCc1[nH]c2cc(Br)c(Cl)cc2c1-c1ccccc1")
3
>>> measurement("NCc1[nH]c2ccc(Cl)cc2c1-c1ccccc1F")
7.5

[ask] What MIC value was documented for this compound, NCc1[nH]c2ccc(Cl)cc2c1-c1c(F)cccc1F ?
[reply] 7.5

[ask] What MIC value was documented for this compound, NCc1[nH]c2ccc(Cl)cc2c1-c1ccc(Cl)cc1Cl ?
[reply] 3

====

Test system: Salmonella
run description: In vitro antibacterial activity, dilution in Mueller Hinton Agar (Table I)
Assay type: cell-based
stated conditions: TYPHI, pH 7.4, B typhi, Mueller Hinton Agar pH 7.4
parameter: MIC (µg/mL)
// units = µg/mL; emit number, no label

Completed entries (count: 4):
>>> measurement("NCc1[nH]c2cc(Br)c(Cl)cc2c1-c1ccccc1")
3
>>> measurement("NCc1[nH]c2ccc(Cl)cc2c1-c1ccc(Cl)cc1Cl")
3
>>> measurement("NCc1[nH]c2ccc(Cl)cc2c1-c1c(F)cccc1F")
7.5
>>> measurement("NCc1[nH]c2ccc(Cl)cc2c1-c1ccccc1")
3

[ask] What MIC value was documented for this compound, NCc1[nH]c2ccc(Cl)cc2c1-c1ccccc1F ?
[reply] 7.5

====

# LD50 listing for each entry below
run description: Acute toxicity in mice (Table V)
stated conditions: mouse, in vivo, Oral

>>> measurement("NCc1[nH]c2ccc(Cl)cc2c1-c1c(F)cccc1F [B]")
"~1000 mg/kg"

[ask] What LD50 value was documented for this compound, NCc1[nH]c2ccc(Cl)cc2c1-c1ccccc1 [C] ?
[reply] > 1000 mg/kg

[ask] What LD50 value was documented for this compound, NCc1[nH]c2ccc(Cl)cc2c1-c1ccc(Cl)cc1Cl [E] ?
[reply] ~700 mg/kg

[ask] What LD50 value was documented for this compound, NCc1[nH]c2ccc(Cl)cc2c1-c1ccccc1F [A] ?
[reply] > 1000 mg/kg

[ask] What LD50 value was documented for this compound, NCc1[nH]c2cc(Br)c(Cl)cc2c1-c1ccccc1 [D] ?
[reply] ~950 mg/kg

====

Tested on: Klebsiella
run description: In vitro antibacterial activity, dilution in Mueller Hinton Agar (Table I)
Type: cell-based
stated conditions: pH 7.4, strain AD17, Mueller Hinton Agar pH 7.4
parameter: MIC (µg/mL)
// units = µg/mL; emit number, no label

>>> measurement("NCc1[nH]c2ccc(Cl)cc2c1-c1ccc(Cl)cc1Cl")
7.5

[ask] What MIC value was documented for this compound, NCc1[nH]c2cc(Br)c(Cl)cc2c1-c1ccccc1 ?
[reply] 3

[ask] What MIC value was documented for this compound, NCc1[nH]c2ccc(Cl)cc2c1-c1c(F)cccc1F ?
[reply] 17.5

[ask] What MIC value was documented for this compound, NCc1[nH]c2ccc(Cl)cc2c1-c1ccccc1F ?
[reply] 7.5

[ask] What MIC value was documented for this compound, NCc1[nH]c2ccc(Cl)cc2c1-c1ccccc1 ?
[reply] 7.5

Reference for the values: patent US4122034A
